assayContext: 333.15 K; 101.33 kPa; Liquid
The following compounds are shown together with reported mass density values.
Could you give me the number in kg/m3? Just the number is fine.

>  <compound>
C[n+]1ccn(CCO)c1.O=C([O-])C(F)(F)F

>  <mass density / kg/m3>
1339.46

$$$$
>  <compound>
CCn1cc[n+](C)c1.COS(=O)(=O)[O-] [1-ethyl-3-methylimidazolium methylsulfate]

>  <mass density / kg/m3>
1264.22

$$$$

Query block: Return reported mass density. Input compound: CCOP(=O)([O-])OCC.CCn1cc[n+](C)c1 [1-ethyl-3-methylimidazolium diethyl phosphate]
Result block: 1121.94

Query block: Write down mass density measured for item CCn1cc[n+](C)c1.O=S(=O)([O-])O [1-ethyl-3-methylimidazolium hydrogen sulfate]
Result block: 1344.38

Query block: Look up mass density of CCCC[P+](CC)(CCCC)CCCC.CCOP(=O)([O-])OCC [tributylethylphosphonium diethylphosphate] and report it.
Result block: 984.33

Query block: Hello, please tell me recorded mass density for this one: CCn1cc[n+](C)c1.CS(=O)(=O)[O-] [1-ethyl-3-methylimidazolium methanesulfonate]
Result block: 1220.33

Query block: Look up and state reported mass density for CCn1cc[n+](C)c1.N#C[S-] [1-ethyl-3-methylimidazolium thiocyanate]
Result block: 1094.91

* * *

Here the recorded molar heat capacity at constant pressure is given for each entry.
testProtocol: molar heat capacity at constant pressure
assayContext: 303.15 K; 101.33 kPa; Liquid; Small sample (50 mg) DSC
Expressed in J/K/mol, but write only the number.

>  <compound>
CCn1cc[n+](C)c1.O=S(=O)([O-])O [1-ethyl-3-methylimidazolium hydrogen sulfate]

>  <unitOfMeasure>
J/K/mol

>  <molar heat capacity at constant pressure>
297

$$$$
>  <compound>
C[n+]1ccn(CCO)c1.O=C([O-])C(F)(F)F

>  <unitOfMeasure>
J/K/mol

>  <molar heat capacity at constant pressure>
371

$$$$
>  <compound>
CCn1cc[n+](C)c1.N#C[S-] [1-ethyl-3-methylimidazolium thiocyanate]

>  <unitOfMeasure>
J/K/mol

>  <molar heat capacity at constant pressure>
288

$$$$
>  <compound>
CCCC[P+](CC)(CCCC)CCCC.CCOP(=O)([O-])OCC [tributylethylphosphonium diethylphosphate]

>  <unitOfMeasure>
J/K/mol

>  <molar heat capacity at constant pressure>
716

$$$$

Query block: Report molar heat capacity at constant pressure, nothing else, for this compound: CCCCCCn1cc[n+](C)c1.O=S(=O)([O-])C(F)(F)F [1-hexyl-3-methylimidazolium trifluoromethanesulfonate]
Result block: 500

Query block: Identify measured molar heat capacity at constant pressure associated with CCOP(=O)([O-])OCC.CCn1cc[n+](C)c1 [1-ethyl-3-methylimidazolium diethyl phosphate]
Result block: 533

Query block: Indicate the recorded molar heat capacity at constant pressure value for this compound: CCn1cc[n+](C)c1.CS(=O)(=O)[O-] [1-ethyl-3-methylimidazolium methanesulfonate]
Result block: 330

Query block: Look up and state reported molar heat capacity at constant pressure for CCn1cc[n+](C)c1.COS(=O)(=O)[O-] [1-ethyl-3-methylimidazolium methylsulfate]
Result block: 332

* * *

Each record here notes measured mass density.
assayContext: 303.15 K; 101.33 kPa; Liquid
Kindly provide the numeric value in kg/m3 only, without the unit symbol.

For orientation, consider the following solved cases.
>  <compound>
CCCC[P+](CC)(CCCC)CCCC.CCOP(=O)([O-])OCC [tributylethylphosphonium diethylphosphate]

>  <mass density / kg/m3>
1004.1

$$$$
>  <compound>
CCn1cc[n+](C)c1.COS(=O)(=O)[O-] [1-ethyl-3-methylimidazolium methylsulfate]

>  <mass density / kg/m3>
1284.37

$$$$
>  <compound>
CCOP(=O)([O-])OCC.CCn1cc[n+](C)c1 [1-ethyl-3-methylimidazolium diethyl phosphate]

>  <mass density / kg/m3>
1142.03

$$$$

Query block: Give me measured mass density, please, for this compound: CCn1cc[n+](C)c1.CS(=O)(=O)[O-] [1-ethyl-3-methylimidazolium methanesulfonate]
Result block: 1240.45

Query block: Annotate the compound CCn1cc[n+](C)c1.O=S(=O)([O-])O [1-ethyl-3-methylimidazolium hydrogen sulfate] with its measured mass density.
Result block: 1362.63

Query block: Indicate its recorded mass density; the compound in question is C[n+]1ccn(CCO)c1.O=C([O-])C(F)(F)F
Result block: 1362.51

Query block: Note mass density for the compound shown: CCn1cc[n+](C)c1.N#C[S-] [1-ethyl-3-methylimidazolium thiocyanate]
Result block: 1112.91

* * *

assayContext: 313.15 K; 101.33 kPa; Liquid
outcomeMeasure: mass density (kg/m3)
Answer in kg/m3, number only, no unit symbol.

In the examples that follow, each entry is paired with its recorded mass density.
>  <compound>
CCCC[P+](CC)(CCCC)CCCC.CCOP(=O)([O-])OCC [tributylethylphosphonium diethylphosphate]

>  <outcomeMeasure>
mass density

>  <measuredValue>
997.42

$$$$
>  <compound>
CCn1cc[n+](C)c1.O=S(=O)([O-])O [1-ethyl-3-methylimidazolium hydrogen sulfate]

>  <outcomeMeasure>
mass density

>  <measuredValue>
1356.27

$$$$
>  <compound>
CCn1cc[n+](C)c1.CS(=O)(=O)[O-] [1-ethyl-3-methylimidazolium methanesulfonate]

>  <outcomeMeasure>
mass density

>  <measuredValue>
1233.48

$$$$
>  <compound>
CCn1cc[n+](C)c1.COS(=O)(=O)[O-] [1-ethyl-3-methylimidazolium methylsulfate]

>  <outcomeMeasure>
mass density

>  <measuredValue>
1277.61

$$$$

Query block: Given CCOP(=O)([O-])OCC.CCn1cc[n+](C)c1 [1-ethyl-3-methylimidazolium diethyl phosphate] , respond with its mass density.
Result block: 1135.19

Query block: Indicate the recorded mass density value for this compound: C[n+]1ccn(CCO)c1.O=C([O-])C(F)(F)F
Result block: 1354.8

Query block: Give mass density for the following compound: CCn1cc[n+](C)c1.N#C[S-] [1-ethyl-3-methylimidazolium thiocyanate]
Result block: 1106.85

* * *

testProtocol: molar heat capacity at constant pressure
assayContext: 343.15 K; 101.33 kPa; Liquid; Small sample (50 mg) DSC
outcomeMeasure: molar heat capacity at constant pressure (J/K/mol)
Report the value in J/K/mol with no unit label.

Examples with their reported molar heat capacity at constant pressure follow.
>  <compound>
CCn1cc[n+](C)c1.N#C[S-] [1-ethyl-3-methylimidazolium thiocyanate]

>  <molar heat capacity at constant pressure, J/K/mol>
300

$$$$
>  <compound>
CCn1cc[n+](C)c1.COS(=O)(=O)[O-] [1-ethyl-3-methylimidazolium methylsulfate]

>  <molar heat capacity at constant pressure, J/K/mol>
354

$$$$
>  <compound>
CCCCCCn1cc[n+](C)c1.O=S(=O)([O-])C(F)(F)F [1-hexyl-3-methylimidazolium trifluoromethanesulfonate]

>  <molar heat capacity at constant pressure, J/K/mol>
522

$$$$

Query block: Assign molar heat capacity at constant pressure to the following record: CCOP(=O)([O-])OCC.CCn1cc[n+](C)c1 [1-ethyl-3-methylimidazolium diethyl phosphate]
Result block: 557

* * *

testProtocol: molar heat capacity at constant pressure
assayContext: 333.15 K; 101.33 kPa; Liquid; Small sample (50 mg) DSC
outcomeMeasure: molar heat capacity at constant pressure (J/K/mol)
Answer format: numeric, J/K/mol implied, no suffix.

Some compounds with known molar heat capacity at constant pressure results, for comparison:
>  <compound>
CCCCCCn1cc[n+](C)c1.O=S(=O)([O-])C(F)(F)F [1-hexyl-3-methylimidazolium trifluoromethanesulfonate]

>  <measuredValue>
516

$$$$
>  <compound>
CCn1cc[n+](C)c1.COS(=O)(=O)[O-] [1-ethyl-3-methylimidazolium methylsulfate]

>  <measuredValue>
347

$$$$
>  <compound>
CCn1cc[n+](C)c1.N#C[S-] [1-ethyl-3-methylimidazolium thiocyanate]

>  <measuredValue>
296

$$$$
>  <compound>
C[n+]1ccn(CCO)c1.O=C([O-])C(F)(F)F

>  <measuredValue>
387

$$$$
>  <compound>
CCCC[P+](CC)(CCCC)CCCC.CCOP(=O)([O-])OCC [tributylethylphosphonium diethylphosphate]

>  <measuredValue>
753

$$$$

Query block: Report molar heat capacity at constant pressure, nothing else, for this compound: CCn1cc[n+](C)c1.CS(=O)(=O)[O-] [1-ethyl-3-methylimidazolium methanesulfonate]
Result block: 344

Query block: Identify measured molar heat capacity at constant pressure associated with CCn1cc[n+](C)c1.O=S(=O)([O-])O [1-ethyl-3-methylimidazolium hydrogen sulfate]
Result block: 313

Query block: Please indicate molar heat capacity at constant pressure recorded for CCOP(=O)([O-])OCC.CCn1cc[n+](C)c1 [1-ethyl-3-methylimidazolium diethyl phosphate]
Result block: 547

* * *

assayContext: 293.15 K; 101.33 kPa; Liquid
outcomeMeasure: mass density (kg/m3)
Field: numeric (kg/m3). Do not append units.

Solved cases (6 shown):
>  <compound>
CCCC[P+](CC)(CCCC)CCCC.CCOP(=O)([O-])OCC [tributylethylphosphonium diethylphosphate]

>  <mass density, kg/m3>
1010.74

$$$$
>  <compound>
CCn1cc[n+](C)c1.N#C[S-] [1-ethyl-3-methylimidazolium thiocyanate]

>  <mass density, kg/m3>
1119.02

$$$$
>  <compound>
C[n+]1ccn(CCO)c1.O=C([O-])C(F)(F)F

>  <mass density, kg/m3>
1370.39

$$$$
>  <compound>
CCn1cc[n+](C)c1.O=S(=O)([O-])O [1-ethyl-3-methylimidazolium hydrogen sulfate]

>  <mass density, kg/m3>
1369.28

$$$$
>  <compound>
CCOP(=O)([O-])OCC.CCn1cc[n+](C)c1 [1-ethyl-3-methylimidazolium diethyl phosphate]

>  <mass density, kg/m3>
1148.92

$$$$
>  <compound>
CCn1cc[n+](C)c1.COS(=O)(=O)[O-] [1-ethyl-3-methylimidazolium methylsulfate]

>  <mass density, kg/m3>
1291.15

$$$$

Would you kindly look at the next entry?
Query block: Provide measured mass density value, entry: CCn1cc[n+](C)c1.CS(=O)(=O)[O-] [1-ethyl-3-methylimidazolium methanesulfonate]
Result block: 1247.31
